Data credit: the supplement of paper PMC10724198

Provide the recorded protein stability index for the entries that follow.
# System: Saccharomyces cerevisiae
# EXPERIMENT_SUMMARY: protein stability index of tFT-peptide fusion (C-terminal peptide) (PSI (0-1 scale)); higher = more stable (slower turnover)
# PROTOCOL_CONDITIONS: genetic background: das1 deletion; temperature: 30 C
One number for each entry.

Record excerpt, results attached:
SEQUENCE_DATA: AGAAWFFVKLLG [CCC1 C-terminal 12 aa]
protein stability index: 0.67
--
SEQUENCE_DATA: DEKVKKMVENLQ [TRS23 C-terminal 12 aa]
protein stability index: 0.73
--
SEQUENCE_DATA: LDLWRDFLNQAN [IDS2 C-terminal 12 aa]
protein stability index: 0.742
--
SEQUENCE_DATA: KDGDVVYDNGFM [CHS7 C-terminal 12 aa]
protein stability index: 0.708
--
SEQUENCE_DATA: EELRPDTLESEL [REC107 C-terminal 12 aa]
protein stability index: 0.683

Go through the items and report each one's protein stability index.
1. DKHEQPQIESPK [CFD1 C-terminal 12 aa]
2. WKQGGGDFRTKK [RBA50 C-terminal 12 aa]
3. SSQQLTLRPPLG [YGL109W C-terminal 12 aa]
4. LAFYLRRLTAKK [RPS8A C-terminal 12 aa]
5. GMYSRAYETHTL [ERG7 C-terminal 12 aa]
6. GCSLQISYARRD [GBP2 C-terminal 12 aa]
7. DLIKEHSKDIQV [HCH1 C-terminal 12 aa]
8. VYTSKTRYRFAV [YHR210C C-terminal 12 aa]

1: 0.7; 2: 0.709; 3: 0.692; 4: 0.674; 5: 0.7; 6: 0.706; 7: 0.687; 8: 0.714

Go through the items and report each one's protein stability index.
1. SYKSNQPSSQNT [MDM36 C-terminal 12 aa]
2. TVSNETKEARET [SPT14 C-terminal 12 aa]

[0.672, 0.684]

----------
Provide the recorded protein stability index for the entries that follow.
# Test system: Saccharomyces cerevisiae
# EXPERIMENT_SUMMARY: protein stability index of tFT-peptide fusion (C-terminal peptide) (PSI (0-1 scale)); higher = more stable (slower turnover)
# PROTOCOL_CONDITIONS: genetic background: wild type; temperature: 30 C

Record excerpt, results attached:
SEQUENCE_DATA: NCSPLCLRVASS
protein stability index: 0.647

SEQUENCE_DATA: PGVGRLGRTPVS
protein stability index: 0.696

SEQUENCE_DATA: LGWPWGGRGEGL
protein stability index: 0.606

SEQUENCE_DATA: GGKNVKCLDRGL
protein stability index: 0.693

SEQUENCE_DATA: RGKTIQGNADPK
protein stability index: 0.672

Go through the items and report each one's protein stability index.
1. PPPPPPPPRRPP
2. EETRLQEVNRIL

1. 0.595
2. 0.737

----------
# Test system: Saccharomyces cerevisiae
# EXPERIMENT_SUMMARY: protein stability index of tFT-peptide fusion (C-terminal peptide) (PSI (0-1 scale)); higher = more stable (slower turnover)
# PROTOCOL_CONDITIONS: genetic background: das1 deletion; temperature: 30 C
Kindly return label 1 if reported protein stability index is no lower than 0.7; return label 0 if it is lower.

Solved entries:
SEQUENCE_DATA: TVIALLVGWIYY [SCS22 C-terminal 12 aa]
LABEL_CLASS: label 0

SEQUENCE_DATA: IFHELKRQNSKN [RGD2 C-terminal 12 aa]
LABEL_CLASS: label 1

SEQUENCE_DATA: EKVRCIKKYQSW [APD1 C-terminal 12 aa]
LABEL_CLASS: label 1

SEQUENCE_DATA: YYNLKNCITSET [YHR050W-A C-terminal 12 aa]
LABEL_CLASS: label 0

SEQUENCE_DATA: FAFVVVKQEFIH [BYE1 C-terminal 12 aa]
LABEL_CLASS: label 0

Is reported protein stability index greater than or equal to 0.7 here: QIDKYMDLFTEG [PDH1 C-terminal 12 aa] label 1
